Value source: patent US20170216295A1

Measurement protocol: Rat liver microsome clearance
Assay type: in vitro ADME
Reported conditions: first value of RLM/HLM cell
RLM CL (rat liver microsome hepatic clearance) for assorted compounds
Observation type: RLM CL (rat liver microsome hepatic clearance) (mL/min/kg)

> print(dat)
                                   compound  value.observed
1  CCc1nc2nc(N(C)C)nn2c(O)c1Cc1ccc(C(C)(C)C)cc1              43
2  CC(C)c1nc2ncnn2c(O)c1Cc1ccc(C(C)(C)C)cc1              44
3  CCc1nc2n[nH]c(=O)n2c(O)c1Cc1ccc(C(C)(C)C)cc1              39
4  Cc1nc2cc(C(F)(F)F)nn2c(O)c1Cc1ccc(C(C)(C)C)cc1              42
5  CC(C)(C)c1ccc(Cc2c(C3CCCC3)nc3ncnn3c2O)cc1              47

###

Measurement target: CCR9 receptor (Homo sapiens)
Sequence (P51686 whole entry): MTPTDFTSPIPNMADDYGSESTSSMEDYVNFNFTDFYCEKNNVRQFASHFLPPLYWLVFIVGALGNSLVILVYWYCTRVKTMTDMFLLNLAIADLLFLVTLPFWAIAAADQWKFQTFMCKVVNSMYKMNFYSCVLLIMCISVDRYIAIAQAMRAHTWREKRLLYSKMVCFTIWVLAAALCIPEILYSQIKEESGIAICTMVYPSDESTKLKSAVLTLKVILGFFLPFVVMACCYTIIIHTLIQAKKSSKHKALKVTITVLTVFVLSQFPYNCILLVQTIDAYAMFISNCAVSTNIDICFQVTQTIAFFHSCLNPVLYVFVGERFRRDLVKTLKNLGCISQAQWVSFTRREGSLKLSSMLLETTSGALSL
Measurement protocol: Calcium mobilization (Ca FLIPR) assay, antagonist mode vs TECK
Reported conditions: cells expressing CCR9; TECK at EC80 0.01 uM; read-out: CCR9 Ca2+ IC50
Method: Calcium Mobilization Assay: Cells expressing CCR9 receptor (MultiSpan, Hayward, Calif.) were seeded in 384-well plates. Ca^2+ assays were conducted after overnight culture in the plates according to the manufacturer's protocol using Screen Quest™ Fluo-8 no wash kit (AAT Bioquest, Sunnyvale, Calif.). […] Calcium flux was monitored for 90 seconds with compound application after 10 seconds. […]
pIC50: −log10 of the molar value.
A collection of compounds and their measured pIC50
Observation type: pIC50

> print(dat)
                                    compound  observation.type  relation.operator  value.observed
 1  Cc1nc2nc(C(F)(F)F)nn2c(O)c1Cc1ccc(C2(F)CCOCC2)cc1             pIC50                  =            6.47
 2  CC(C)Cc1nc2ncnn2c(O)c1Cc1ccc(C(C)(C)C)cc1             pIC50                  =            7.57
 3  CCc1nc2nc(CN(C)C)nn2c(O)c1Cc1ccc(C(C)(C)C)cc1             pIC50                  =            6.54
 4  CN(C)c1nc2ncnn2c(O)c1Cc1ccc(C(C)(C)C)cc1             pIC50                  <            6.00
 5  CC(C)c1nc2ncnn2c(O)c1Cc1ccc(C(C)(C)C)cc1             pIC50                  =            7.28
 6  CCc1nc2nc(CO)nn2c(O)c1Cc1ccc(C(C)(C)C)cc1             pIC50                  =            8.00
 7  Cc1nc2nc(C(F)(F)F)nn2c(O)c1Cc1ccc(N2CC(C)OC(C)C2)c(F)c1 (centres unmarked)             pIC50                  =            5.72
 8  CCc1nc2ncnn2c(O)c1Cc1ccc(C2(C)CCOCC2)cc1             pIC50                  =            7.66
 9      CC(C)(C)c1ccc(Cc2c(O)nc3ncnn3c2O)cc1             pIC50                  <            5.00
10  Cc1nc2nc(C(F)(F)F)nn2c(O)c1Cc1ccc(C(C)(C)C)cc1             pIC50                  =            6.39
11  COc1c(Cc2ccc(C(C)(C)C)cc2)c(C)nc2nc(C(F)(F)F)nn12             pIC50                  =            5.43
12  CCc1nc2nc(N(C)C)nn2c(O)c1Cc1ccc(C(C)(C)C)cc1             pIC50                  =            7.48
13  Cc1nc2cc(C(F)(F)F)nn2c(O)c1Cc1ccc(C(C)(C)C)cc1             pIC50                  =            6.96
14   CCc1nc2ncnn2c(O)c1Cc1ccc(C(C)(C)C#N)cc1             pIC50                  =            7.19
15  COCc1nc2nc(O)c(Cc3ccc(C(C)(C)C)cc3)c(COC)n2n1             pIC50                  =            7.89
16  Cc1c(Cc2ccc(C(C)(C)C)cc2)c(=O)n2nc(C(F)(F)F)nc2n1C             pIC50                  <            4.70
17  CC(C)(C)c1ccc(Cc2c(C3CCC3)nc3ncnn3c2O)cc1             pIC50                  =            8.30
18    Cc1c(Cc2ccc(C(C)(C)C)cc2)c(O)nc2ncnn12             pIC50                  =            6.09
19  CCc1nc2nc(C)nn2c(O)c1Cc1ccc(C(C)(C)C)cc1             pIC50                  =            7.72
20    CCOc1nc2ncnn2c(O)c1Cc1ccc(C(C)(C)C)cc1             pIC50                  =            7.64
21  Cc1cn2c(O)c(Cc3ccc(C(C)(C)C)cc3)c(C)nc2n1             pIC50                  <            5.00
22  CC(C)(C)c1ccc(Cc2c(-c3ccoc3)nc3ncnn3c2O)cc1             pIC50                  =            8.30
23     CCc1nc2ncnn2c(O)c1Cc1ccc(C(C)(C)C)cc1             pIC50                  =            7.68
24  CC(C)(C)c1ccc(Cc2c(C3CCOC3)nc3ncnn3c2O)cc1 (centres unmarked)             pIC50                  =            7.77
25  CCc1nc2c[nH]nc2c(O)c1Cc1ccc(C(C)(C)C)cc1             pIC50                  <            5.00
26  CCc1nc2nc(COC)nn2c(O)c1Cc1ccc(C(C)(C)C)cc1             pIC50                  =            8.15

###

Measurement protocol: pH-solubility (high-throughput, buffers)
Format: physicochemical
Reported conditions: 1000 ug compound in 1 mL pH 9 buffer
Procedure: Solubility of representative acidic triazoles was measured in 3 buffer systems (pH 4, 7.4 and 9) using an in-house high-throughput solubility method. A stock solution of test article was prepared in DMA (20 mg/ml) and spiked into each buffer system (20× dilution) to target 1 mg/ml concentration. The samples were vortexed briefly and equilibrated for 24 hr at RT. Samples were then filtered using 0.22u PVDF membrane filters and analyzed for drug concentration using HPLC.
Entries and their Sol. pH 9
Observation type: Sol. pH 9

> print(dat)
                                   molecule  value.observed
1  COCc1nc2ncnn2c(O)c1Cc1ccc(C(C)(C)C)cc1 [Compound 26]    > 1000 ug/mL
2  Cc1nc2nc(C(F)(F)F)nn2c(O)c1Cc1ccc(N2CC(C)OC(C)C2)c(F)c1 (stereo not drawn) [Compound 33]    > 1000 ug/mL
3  Cc1nc2ncnn2c(O)c1Cc1ccc(C(C)(C)C)cc1 [Compound 11]    > 1000 ug/mL
